Test: supercomplex reporter luminescence per Hoechst cell count – Hoechst nuclei count (AID 1645838);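 further: control cybrid cells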
Conditions: Cells, luminescence/Hoechst cell count ratio, measured here: cell number, Hoechst nuclei count, library stock concentration (final well concentration not given) 2 mM
About 100 (5%) of roughly 2,000 compounds were called active. The full list was thinned out, with actives kept by preference.

>  <compound>
Cc1ccc(COC(=O)N2CCC(CNc3ncccn3)C(F)C2)cc1 (stereo not given)

>  <cell count>
5140

$$$$
>  <compound>
CC#C[C@]1(O)CC[C@@H]2[C@@H]3CCC4=CC(=O)CCC4=C3C(c3ccc(N(C)C)cc3)C[C@@]21C (stereo not given in full)

>  <cell count>
5480

$$$$
>  <compound>
Cc1c(-c2ccc(-c3ccccc3F)cc2)nc2ccc(F)cc2c1C(=O)O

>  <cell count>
1790

$$$$
>  <compound>
CCC(NC(=O)c1c(C)c(-c2ccccc2)nc2ccccc12)c1ccccc1 (stereo not given)

>  <cell count>
6520

$$$$
>  <compound>
c1ccc(Cc2ccncc2)cc1

>  <cell count>
5260

$$$$

###

Assay: supercomplex reporter luminescence per Hoechst cell count – Hoechst nuclei count (AID 1645838);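 further: control cybrid cells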;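 on z-score: higher means more mitochondrial supercomplex formation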
Conditions: Cells, luminescence/Hoechst cell count ratio, stronger effect = higher value
In all, about 2,000 compounds went through this assay and about 100 (5%) were called active. What follows is part of a selection rich in actives, with near analogues and random picks from the rest.
Examples of compounds with documented z-score follow.

>  <compound>
CC(C)(CCCCCCCCCCC(C)(C)CC(=O)O)CC(=O)O

>  <z-score>
2.9

$$$$
>  <compound>
CCCCC/C=C\C=C1\C(=O)CC[C@@H]1C/C=C\CCCC(=O)O

>  <z-score>
-0.163

$$$$
>  <compound>
Cn1cnc2c(NCc3ccccc3)nc(NCCO)nc21

>  <z-score>
0.158

$$$$
>  <compound>
C=C(C)[C@@H]1CCC(C)=C[C@H]1c1c(O)cc(C)cc1O

>  <z-score>
-0.799

$$$$
>  <compound>
O=P(O)(O)OC1C(O)C(OP(=O)(O)O)C(O)C(OP(=O)(O)O)C1O (configuration not stated)

>  <z-score>
-0.332

$$$$
>  <compound>
CCCCC(C)(C)[C@H](O)/C=C/[C@@H]1[C@@H](C/C=C\CCCC(=O)O)[C@@H](O)C[C@H]1O

>  <z-score>
-0.23

$$$$
>  <compound>
CCCCC[C@H](O)/C=C/[C@H]1C=CC(=O)[C@@H]1CCCCCCC(=O)O

>  <z-score>
0.664

$$$$

###

Test: supercomplex reporter luminescence per Hoechst cell count – Hoechst nuclei count (AID 1645838);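 further: control cybrid cells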;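 on z-score: higher means more mitochondrial supercomplex formation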
Settings: Cells, luminescence/Hoechst cell count ratio, library stock concentration (final well concentration not given) 400 uM, stronger effect = higher value
Hit rate of the full screen: of about 2,000 compounds, about 100 (5%) were called active. The sample as a whole holds a higher share of actives than the screen did.
attribute.measured: z-score

>  <molecule>
CC(C)c1ccc(-c2cc(=O)c3ccccc3o2)cc1

>  <assay.value>
1e-05 (inactive)

$$$$
>  <molecule>
CC(Cc1cc2c(c(C(N)=O)c1)N(CCCO)CC2)NCCOc1ccccc1OCC(F)(F)F (stereo unspecified)

>  <assay.value>
-1.87 (inactive)

$$$$
>  <molecule>
CS(=O)(=O)N1CCc2c(-c3cnc(N)nc3)nc(N3CCOCC3)nc21

>  <assay.value>
0.294 (inactive)

$$$$
>  <molecule>
COc1cc(Cc2cnc(N)nc2N)c2c(c1OC)OC(C1CC1)C=C2 (stereo unspecified)

>  <assay.value>
-0.19 (inactive)

$$$$
>  <molecule>
CS(=O)(=O)N1CCN(Cc2cc3nc(-c4cccc5[nH]ncc45)nc(N4CCOCC4)c3s2)CC1

>  <assay.value>
0.745 (inactive)

$$$$
>  <molecule>
NC(=O)Nc1cc(-c2cccc(F)c2)sc1C(=O)NC1CCCNC1 (stereo unspecified)

>  <assay.value>
2.61 (active)

$$$$
>  <molecule>
COc1ccc2c(c1)CN(C)CCS2

>  <assay.value>
-0.795 (inactive)

$$$$
>  <molecule>
O=C(Nc1ccc(N2CCOCC2)cc1)c1n[nH]c2ccccc12

>  <assay.value>
0.396 (inactive)

$$$$
>  <molecule>
CCN(CC)Cc1ccc(C(=O)N(CCc2ccccc2OC)C2CCNC2)cc1 (stereo unspecified)

>  <assay.value>
0.267 (inactive)

$$$$
>  <molecule>
CC(N)c1ccc(C(=O)Nc2ccnc3[nH]ccc23)cc1 (stereo unspecified)

>  <assay.value>
-0.0384 (inactive)

$$$$
>  <molecule>
Cc1cn(-c2cc(NC(=O)c3ccc(C)c(Nc4nccc(-c5cccnc5)n4)c3)cc(C(F)(F)F)c2)cn1

>  <assay.value>
-0.0425 (inactive)

$$$$
>  <molecule>
COc1cc(Nc2ncc(F)c(Nc3ccc4c(n3)NC(=O)C(C)(C)O4)n2)cc(OC)c1OC

>  <assay.value>
-0.268 (inactive)

$$$$
>  <molecule>
COc1cc(C(=O)NS(=O)(=O)c2ccccc2C)ccc1Cc1cn(C)c2ccc(NC(=O)OC3CCCC3)cc12

>  <assay.value>
0.251 (inactive)

$$$$
>  <molecule>
COc1cc(=C2C=c3ccccc3=N2)[nH]c1=Cc1[nH]c(C)cc1C

>  <assay.value>
2.07 (active)

$$$$
>  <molecule>
Cn1ncnc1C1c2n[nH]c(=O)c3cc(F)cc(c23)NC1c1ccc(F)cc1 (stereo unspecified)

>  <assay.value>
3.69 (active)

$$$$
>  <molecule>
O=C(O)c1cc(C(F)(F)F)ccc1N1CCC(OCc2ccccn2)C1 (stereo unspecified)

>  <assay.value>
-0.142 (inactive)

$$$$
>  <molecule>
Cc1nc(C(=O)N2CCCC2Cc2nnc(-c3ccccc3)o2)c(-c2ccccc2F)s1 (stereo unspecified)

>  <assay.value>
-0.462 (inactive)

$$$$
>  <molecule>
Cc1ccc(C(=O)NCCCCCC(=O)Nc2ccccc2N)cc1

>  <assay.value>
0.271 (inactive)

$$$$
>  <molecule>
Cc1ccc(NC(=O)c2ccc(CN3CCN(C)CC3)cc2)cc1Nc1nccc(-c2cccnc2)n1

>  <assay.value>
-0.672 (inactive)

$$$$
>  <molecule>
Oc1cc(-c2nc(-c3ccccc3)[nH]c2-c2ccncc2)ccc1Cl

>  <assay.value>
0.0422 (inactive)

$$$$
>  <molecule>
CN(c1ccccc1CNc1nc(Nc2ccc3c(c2)CC(=O)N3)ncc1C(F)(F)F)S(C)(=O)=O

>  <assay.value>
0.505 (inactive)

$$$$
